Can you tell me inhibition in vivo at 1 mg/kg for the items I'm about to list?
Test system: Mus musculus
assayComment: Inhibition of acute cholesterol synthesis in mouse at 1 mg/kg
Format: functional
conditionInfo: read-out: Inhibition
Unit % implied. Number only.

So what does the record say about inhibition in vivo at 1 mg/kg for "CC(C)n1c(CC[C@@H](O)C[C@@H](O)CC(=O)O)c(-c2ccc(F)cc2)c(-c2ccc(F)cc2)c1C(=O)Nc1cccc(O)c1" ?
22

So what does the record say about inhibition in vivo at 1 mg/kg for "CC(C)n1c(CC[C@@H](O)C[C@@H](O)CC(=O)O)c(-c2ccc(F)cc2)c(-c2ccccc2)c1C(=O)NCc1ccccc1" ?
46

So what does the record say about inhibition in vivo at 1 mg/kg for "CC(C)n1c(CC[C@@H](O)C[C@@H](O)CC(=O)O)c(-c2ccc(F)cc2)c(-c2ccccc2)c1C(=O)NCc1cccc(C(N)=O)c1" ?
22

So what does the record say about inhibition in vivo at 1 mg/kg for "CC(C)n1c(CC[C@@H](O)C[C@@H](O)CC(=O)O)c(-c2ccc(F)cc2)c(-c2ccccc2)c1C(=O)NCc1ccc(C#N)cc1" ?
47

So what does the record say about inhibition in vivo at 1 mg/kg for "CC(C)n1c(CC[C@@H](O)C[C@@H](O)CC(=O)O)c(-c2ccc(F)cc2)c(-c2ccc(F)cc2)c1C(=O)Nc1ccccc1" ?
75

So what does the record say about inhibition in vivo at 1 mg/kg for "CC(C)n1c(CC[C@@H](O)C[C@@H](O)CC(=O)O)c(-c2ccc(F)cc2)c(-c2ccccc2)c1C(=O)Nc1ccc(S(N)(=O)=O)cc1" ?
32

So what does the record say about inhibition in vivo at 1 mg/kg for "CC(C)n1c(CC[C@@H](O)C[C@@H](O)CC(=O)O)c(-c2ccc(F)cc2)c(-c2ccccc2)c1C(=O)NCc1ccccn1" ?
39

So what does the record say about inhibition in vivo at 1 mg/kg for "CC(C)n1c(CC[C@@H](O)C[C@@H](O)CC(=O)O)c(-c2ccc(F)cc2)c(-c2ccc(F)cc2)c1C(=O)Nc1cccc(C(=O)N(C)C)c1" ?
20

So what does the record say about inhibition in vivo at 1 mg/kg for "CC(C)n1c(CC[C@@H](O)C[C@@H](O)CC(=O)O)c(-c2ccc(F)cc2)c(-c2ccccc2)c1C(=O)Nc1ccc(C(=O)N(C)C)cc1" ?
10

So what does the record say about inhibition in vivo at 1 mg/kg for CC(C)c1nc(N(C)S(C)(=O)=O)nc(-c2ccc(F)cc2)c1/C=C/[C@@H](O)C[C@@H](O)CC(=O)O [ROSUVASTATIN] ?
82

So what does the record say about inhibition in vivo at 1 mg/kg for "CC(C)n1c(CC[C@@H](O)C[C@@H](O)CC(=O)O)c(-c2ccc(F)cc2)c(-c2ccccc2)c1C(=O)Nc1ccc(C(N)=O)cc1" ?
45

So what does the record say about inhibition in vivo at 1 mg/kg for "Cc1cnc(CNC(=O)c2c(-c3ccccc3)c(-c3ccc(F)cc3)c(CC[C@@H](O)C[C@@H](O)CC(=O)O)n2C(C)C)[nH]1" ?
11

So what does the record say about inhibition in vivo at 1 mg/kg for "CNC(=O)c1c(-c2ccccc2)c(-c2ccc(F)cc2)c(CC[C@@H](O)C[C@@H](O)CC(=O)[O-])n1C(C)C.[Na+]" ?
83

So what does the record say about inhibition in vivo at 1 mg/kg for "Cc1cc(CNC(=O)c2c(-c3ccccc3)c(-c3ccc(F)cc3)c(CC[C@@H](O)C[C@@H](O)CC(=O)O)n2C(C)C)nn1C" ?
19

So what does the record say about inhibition in vivo at 1 mg/kg for "COc1cccc(NC(=O)c2c(-c3ccc(F)cc3)c(-c3ccc(F)cc3)c(CC[C@@H](O)C[C@@H](O)CC(=O)O)n2C(C)C)c1" ?
54

So what does the record say about inhibition in vivo at 1 mg/kg for "CCNC(=O)c1c(-c2ccccc2)c(-c2ccc(F)cc2)c(CC[C@@H](O)C[C@@H](O)CC(=O)[O-])n1C(C)C.[Na+]" ?
76

So what does the record say about inhibition in vivo at 1 mg/kg for "CC(C)n1c(CC[C@@H](O)C[C@@H](O)CC(=O)O)c(-c2ccc(F)cc2)c(-c2ccccc2)c1C(=O)Nc1ccc(O)cc1" ?
48

So what does the record say about inhibition in vivo at 1 mg/kg for "COc1ccc(CNC(=O)c2c(-c3ccccc3)c(-c3ccc(F)cc3)c(CC[C@@H](O)C[C@@H](O)CC(=O)O)n2C(C)C)cc1" ?
52

So what does the record say about inhibition in vivo at 1 mg/kg for "CC(C)n1c(CC[C@@H](O)C[C@@H](O)CC(=O)O)c(-c2ccc(F)cc2)c(-c2ccccc2)c1C(=O)N(C)C" ?
85

So what does the record say about inhibition in vivo at 1 mg/kg for "Cc1csc(CNC(=O)c2c(-c3ccccc3)c(-c3ccc(F)cc3)c(CC[C@@H](O)C[C@@H](O)CC(=O)O)n2C(C)C)n1" ?
33

So what does the record say about inhibition in vivo at 1 mg/kg for "CC(C)n1c(CC[C@@H](O)C[C@@H](O)CC(=O)[O-])c(-c2ccc(F)cc2)c(-c2ccccc2)c1C(N)=O.[Na+]" ?
85

So what does the record say about inhibition in vivo at 1 mg/kg for "CC(C)n1c(CC[C@@H](O)C[C@@H](O)CC(=O)O)c(-c2ccc(F)cc2)c(-c2ccccc2)c1C(=O)NCc1ccc(C(=O)N(C)C)cc1" ?
38

So what does the record say about inhibition in vivo at 1 mg/kg for "CC(C)n1c(CC[C@@H](O)C[C@@H](O)CC(=O)O)c(-c2ccc(F)cc2)c(-c2ccccc2)c1C(=O)Nc1ccccc1" ?
57

So what does the record say about inhibition in vivo at 1 mg/kg for "CC(C)NC(=O)c1c(-c2ccccc2)c(-c2ccc(F)cc2)c(CC[C@@H](O)C[C@@H](O)CC(=O)O)n1C(C)C" ?
73

So what does the record say about inhibition in vivo at 1 mg/kg for "CC(C)n1c(CC[C@@H](O)C[C@@H](O)CC(=O)O)c(-c2ccc(F)cc2)c(-c2ccccc2)c1C(=O)NCc1ccc(C(=O)O)cc1" ?
7

So what does the record say about inhibition in vivo at 1 mg/kg for "CC(C)n1c(CC[C@@H](O)C[C@@H](O)CC(=O)[O-])c(-c2ccc(F)cc2)c(-c2ccccc2)c1C(=O)NC1CC1.[Na+]" ?
70
